Experiment: Hygroscopy, dynamic vapour sorption (DVS) isotherms (Example 15)
Type: physicochemical
Details: 50% Relative humidity
Protocol: Water sorption isotherms were determined using a DVS Resolution gravimetric sorption analyzer (London, UK), or a DVS Intrinsic instrument (Surface measurement Systems). The sample was dried for 1000 minutes at 0% relative humidity (R.H.). Afterwards the dry weight was recorded. […] The equilibrium criterion for each relative humidity set point was 0.002% per minute relative mass change as a function of time.
Property: Change in mass [%], Sorption (%)
Entry rule: numbers only, all in %.

Please review the entries below; each comes with its answer.
| Compound | Change in mass [%], Sorption, % |
| --- | --- |
| O=C([O-])c1cc(NC(=O)C2(c3ccc(C(F)(F)F)cc3F)CC2)ccc1-c1cnn(C2CCC2)c1.[K+] [Potassium salt] | 11.39 |
| O=C([O-])c1cc(NC(=O)C2(c3ccc(C(F)(F)F)cc3F)CC2)ccc1-c1cnn(C2CCC2)c1.[Na+] [Sodium salt] | 7.77 |
| N=C(N)NCCC[C@H](N)C(=O)O.O=C(O)c1cc(NC(=O)C2(c3ccc(C(F)(F)F)cc3F)CC2)ccc1-c1cnn(C2CCC2)c1 [Arginine Salt] | 5.72 |

Let us move to another entry and its Change in mass [%], Sorption.
Dear colleague, I am looking for the recorded Change in mass [%], Sorption of the following compound: O=C(O)c1cc(NC(=O)C2(c3ccc(C(F)(F)F)cc3F)CC2)ccc1-c1cnn(C2CCC2)c1 [free acid]
0.17

----------
Test: Hygroscopy, dynamic vapour sorption (DVS) isotherms (Example 15)
Format: physicochemical
Conditions: 30% Relative humidity
Method: Water sorption isotherms were determined using a DVS Resolution gravimetric sorption analyzer (London, UK), or a DVS Intrinsic instrument (Surface measurement Systems). The sample was dried for 1000 minutes at 0% relative humidity (R.H.). Afterwards the dry weight was recorded. […] The equilibrium criterion for each relative humidity set point was 0.002% per minute relative mass change as a function of time.
Property: Change in mass [%], Desorption (%)
Entry rule: numbers only, all in %.

| Molecule | Unit of measurement | Value observed |
| --- | --- | --- |
| O=C([O-])c1cc(NC(=O)C2(c3ccc(C(F)(F)F)cc3F)CC2)ccc1-c1cnn(C2CCC2)c1.[Na+] [Sodium salt] | % | 1.91 |

Dear colleague, I am looking for the recorded Change in mass [%], Desorption of the following molecule: O=C(O)c1cc(NC(=O)C2(c3ccc(C(F)(F)F)cc3F)CC2)ccc1-c1cnn(C2CCC2)c1 [free acid]
0.35

Follow-up entry: O=C([O-])c1cc(NC(=O)C2(c3ccc(C(F)(F)F)cc3F)CC2)ccc1-c1cnn(C2CCC2)c1.[K+] [Potassium salt]
15.18

Follow-up entry: N=C(N)NCCC[C@H](N)C(=O)O.O=C(O)c1cc(NC(=O)C2(c3ccc(C(F)(F)F)cc3F)CC2)ccc1-c1cnn(C2CCC2)c1 [Arginine Salt]
10.78

----------
Measured Change in mass [%], Desorption by item
test: Hygroscopy, dynamic vapour sorption (DVS) isotherms (Example 15); assay type: physicochemical; settings: 0% Relative humidity
Entry rule: numbers only, all in %.

Please review the entries below; each comes with its answer.
| Compound | Unit of measurement | Change in mass [%], Desorption |
| --- | --- | --- |
| O=C(O)c1cc(NC(=O)C2(c3ccc(C(F)(F)F)cc3F)CC2)ccc1-c1cnn(C2CCC2)c1 [free acid] | % | 0.65 |
| O=C([O-])c1cc(NC(=O)C2(c3ccc(C(F)(F)F)cc3F)CC2)ccc1-c1cnn(C2CCC2)c1.[Na+] [Sodium salt] | % | −3.95 |
| O=C([O-])c1cc(NC(=O)C2(c3ccc(C(F)(F)F)cc3F)CC2)ccc1-c1cnn(C2CCC2)c1.[K+] [Potassium salt] | % | 67.05 |

Let us move to another entry and its Change in mass [%], Desorption.
Dear colleague, I am looking for the recorded Change in mass [%], Desorption of the following compound: N=C(N)NCCC[C@H](N)C(=O)O.O=C(O)c1cc(NC(=O)C2(c3ccc(C(F)(F)F)cc3F)CC2)ccc1-c1cnn(C2CCC2)c1 [Arginine Salt]
31.74

----------
assay: Hygroscopy, dynamic vapour sorption (DVS) isotherms (Example 15); type: physicochemical; settings: 10% Relative humidity
Property: Change in mass [%], Desorption (%)
Entry rule: numbers only, all in %.

Please review the entries below; each comes with its answer.
| Compound | Unit of measurement | Change in mass [%], Desorption |
| --- | --- | --- |
| N=C(N)NCCC[C@H](N)C(=O)O.O=C(O)c1cc(NC(=O)C2(c3ccc(C(F)(F)F)cc3F)CC2)ccc1-c1cnn(C2CCC2)c1 [Arginine Salt] | % | 20.17 |
| O=C(O)c1cc(NC(=O)C2(c3ccc(C(F)(F)F)cc3F)CC2)ccc1-c1cnn(C2CCC2)c1 [free acid] | % | 0.52 |
| O=C([O-])c1cc(NC(=O)C2(c3ccc(C(F)(F)F)cc3F)CC2)ccc1-c1cnn(C2CCC2)c1.[Na+] [Sodium salt] | % | −0.87 |

Let us move to another entry and its Change in mass [%], Desorption.
Dear colleague, I am looking for the recorded Change in mass [%], Desorption of the following compound: O=C([O-])c1cc(NC(=O)C2(c3ccc(C(F)(F)F)cc3F)CC2)ccc1-c1cnn(C2CCC2)c1.[K+] [Potassium salt]
36.40

----------
experiment: Determination of exposure in rat after intragastric administration (Example 13); assay type: in vivo; details: free acid in rat plasma, dose equiv. 3 mg/kg
Property: AUC(0-tlast)norm (kg·h/L)
Entry rule: numbers only, all in kg·h/L.

Dear colleague, I am looking for the recorded AUC(0-tlast)norm of the following compound: O=C(O)c1cc(NC(=O)C2(c3ccc(C(F)(F)F)cc3F)CC2)ccc1-c1cnn(C2CCC2)c1 [free acid]
8.1

----------
assay: Solubility free acid vs. salt, shake-flask method (Example 12); format: physicochemical; conditions: 0.1M HCl, 25 °C, simulated gastric fluid, thermodynamic from solid, 0.1M HCl, 25° C.; read-out: Solubility
Property: solubility

Dear colleague, I am looking for the recorded solubility of the following compound: O=C(O)c1cc(NC(=O)C2(c3ccc(C(F)(F)F)cc3F)CC2)ccc1-c1cnn(C2CCC2)c1 [cholinate]
< 1 µg/mL

----------
Measured Change in mass [%], Sorption by item
test: Hygroscopy, dynamic vapour sorption (DVS) isotherms (Example 15); format: physicochemical; details: 20% Relative humidity
Entry rule: numbers only, all in %.

Please review the entries below; each comes with its answer.
| Molecule | Change in mass [%], Sorption (%) |
| --- | --- |
| N=C(N)NCCC[C@H](N)C(=O)O.O=C(O)c1cc(NC(=O)C2(c3ccc(C(F)(F)F)cc3F)CC2)ccc1-c1cnn(C2CCC2)c1 [Arginine Salt] | 2.13 |
| O=C(O)c1cc(NC(=O)C2(c3ccc(C(F)(F)F)cc3F)CC2)ccc1-c1cnn(C2CCC2)c1 [free acid] | 0.10 |
| O=C([O-])c1cc(NC(=O)C2(c3ccc(C(F)(F)F)cc3F)CC2)ccc1-c1cnn(C2CCC2)c1.[Na+] [Sodium salt] | 1.36 |

Let us move to another entry and its Change in mass [%], Sorption.
Dear colleague, I am looking for the recorded Change in mass [%], Sorption of the following molecule: O=C([O-])c1cc(NC(=O)C2(c3ccc(C(F)(F)F)cc3F)CC2)ccc1-c1cnn(C2CCC2)c1.[K+] [Potassium salt]
4.12

----------
test: Hygroscopy, dynamic vapour sorption (DVS) isotherms (Example 15); format: physicochemical; details: 95% Relative humidity
Property: Change in mass [%], Desorption (%)
Entry rule: numbers only, all in %.

Please review the entries below; each comes with its answer.
| Compound | Change in mass [%], Desorption, % |
| --- | --- |
| O=C([O-])c1cc(NC(=O)C2(c3ccc(C(F)(F)F)cc3F)CC2)ccc1-c1cnn(C2CCC2)c1.[Na+] [Sodium salt] | 42.62 |
| O=C([O-])c1cc(NC(=O)C2(c3ccc(C(F)(F)F)cc3F)CC2)ccc1-c1cnn(C2CCC2)c1.[K+] [Potassium salt] | 0.00 |
| O=C(O)c1cc(NC(=O)C2(c3ccc(C(F)(F)F)cc3F)CC2)ccc1-c1cnn(C2CCC2)c1 [free acid] | 0.00 |

Dear colleague, I am looking for the recorded Change in mass [%], Desorption of the following compound: N=C(N)NCCC[C@H](N)C(=O)O.O=C(O)c1cc(NC(=O)C2(c3ccc(C(F)(F)F)cc3F)CC2)ccc1-c1cnn(C2CCC2)c1 [Arginine Salt]
1.60

----------
assay: Determination of exposure in rat after intragastric administration (Example 13); format: in vivo; settings: female, rat, plasma, po, 248 mg/kg, free acid in rat plasma, dose equiv. 248 mg/kg, read-out: AUC(0-tlast)
Property: AUC(0-t) (µg·h/mL)
Entry rule: numbers only, all in µg·h/mL.

Dear colleague, I am looking for the recorded AUC(0-t) of the following molecule: O=C(O)c1cc(NC(=O)C2(c3ccc(C(F)(F)F)cc3F)CC2)ccc1-c1cnn(C2CCC2)c1 [cholinate]
745
